Values were extracted from patent US7262212B2.

- compound: "C[C@]1(CN2CCN(C(=O)N3CCC(c4ccc(C(F)(F)F)cc4)CC3)CC2)Cn2cc([N+](=O)[O-])nc2O1"
  melting point: "179.1 to 181.9 °C"
- compound: "Cn1c(=O)n(CC2(C)Cn3cc([N+](=O)[O-])nc3O2)c2cc(F)ccc21 (stereo not drawn)"
  melting point: "244.2 to 249.8 °C (dec.)"
- compound: "CC(C)(C)OC(=O)N1CCN(C(=O)c2ccc(OC[C@@]3(C)Cn4cc([N+](=O)[O-])nc4O3)cc2)CC1"
  melting point: "222.5 to 224 °C"
- compound: "CN(CC1(C)Cn2cc([N+](=O)[O-])nc2O1)C(=O)OCc1ccccc1 (stereo not drawn)"
  melting point: "150.3 to 151.6 °C"
- compound: "C[C@]1(CN2CC=C(c3ccccc3)CC2)Cn2cc([N+](=O)[O-])nc2O1"
  melting point: "200.1 to 201 °C"
- compound: "CC1(CCCN2CCN(C(C)(C)C)C(=O)C2)Cn2cc([N+](=O)[O-])nc2O1 (stereo not drawn)"
  melting point: "147 to 149 °C (dec.)"
- compound: "CC1(COC(=O)N2CCN(c3ccc(OC(F)(F)F)cc3)CC2)Cn2cc([N+](=O)[O-])nc2O1 (stereo not drawn)"
  melting point: "138 to 140 °C"
- compound: "CC1(COC(=O)Nc2cccc(F)c2)Cn2cc([N+](=O)[O-])nc2O1 (stereo not drawn)"
  melting point: "168 to 169 °C"
- compound: "CC1(COc2ccc(N3CCN(c4ccc(C(F)(F)F)cc4)CC3)cc2)Cn2cc([N+](=O)[O-])nc2O1 (stereo not drawn)"
  melting point: "230.7 to 233.1 °C"
- compound: "CN(CCN1CCN(Cc2ccc(C(F)(F)F)cc2)CC1)C[C@@]1(C)Cn2cc([N+](=O)[O-])nc2O1"
  melting point: "102 to 104.5 °C"
- compound: "C[C@]1(CN2CCN(C(=O)CCCc3ccc(Cl)cc3)CC2)Cn2cc([N+](=O)[O-])nc2O1"
  melting point: "146 to 147 °C"
- compound: "CC(C)(C)OC(=O)N1CCN(c2cccc(OC[C@@]3(C)Cn4cc([N+](=O)[O-])nc4O3)c2)CC1"
  melting point: "179.5 to 182 °C"
- compound: "C[C@]1(CN2CCC(Nc3ccc(OC(F)(F)F)cc3)CC2)Cn2cc([N+](=O)[O-])nc2O1"
  melting point: "107.5 to 109 °C"
- compound: "CC1(Cn2c(=O)n(C3CCN(C(=O)OCc4ccccc4)CC3)c3ccccc32)Cn2cc([N+](=O)[O-])nc2O1 (stereo not drawn)"
  melting point: "181.7 to 184.6 °C"
- compound: "CC1(CN2C(=O)C(F)(F)c3ccccc32)Cn2cc([N+](=O)[O-])nc2O1 (stereo not drawn)"
  melting point: "202 to 206 °C"
- compound: "C[C@]1(CN2CCC(c3ccccc3)CC2)Cn2cc([N+](=O)[O-])nc2O1"
  melting point: "158.8 to 163.9 °C"
- compound: "CC1(CCN2CCN(C(C)(C)C)C(=O)C2)Cn2cc([N+](=O)[O-])nc2O1 (stereo not drawn)"
  melting point: "153 to 154 °C"
- compound: "CC1(CN2CCN(C(=O)Nc3ccc(Cl)cc3)CC2)Cn2cc([N+](=O)[O-])nc2O1 (stereo not drawn)"
  melting point: "185 to 188 °C (dec.)"
- compound: "O=C(OCc1ccc(C(F)(F)F)cc1)N1CCN(C[C@H]2Cn3cc([N+](=O)[O-])nc3O2)CC1"
  melting point: "125 to 125.5 °C"
- compound: "CN1C(=O)C(C)(C)c2cc(COC(=O)N3CCN(C[C@@]4(C)Cn5cc([N+](=O)[O-])nc5O4)CC3)ccc21"
  melting point: "80 to 100 °C (dec.)"
- compound: "C[C@]1(CN2CCN(C(=O)N3CC=C(c4ccc(C(F)(F)F)cc4)CC3)CC2)Cn2cc([N+](=O)[O-])nc2O1"
  melting point: "168.4 to 171.7 °C"
- compound: "O=[N+]([O-])c1cn2c(n1)OC1(CCN(c3ccc(OC(F)(F)F)cc3)CC1)C2"
  melting point: "235.9 to 236.8 °C (dec.)"
- compound: "CC(C)(C)OC(=O)N1CCC2(CC1)Cn1cc([N+](=O)[O-])nc1O2"
  melting point: "230 to 232 °C"
- compound: "C[C@]1(CN2CCN(S(=O)(=O)CCc3ccc(Cl)cc3)CC2)Cn2cc([N+](=O)[O-])nc2O1"
  melting point: "192 to 193 °C"
- compound: "CN(C[C@@]1(C)Cn2cc([N+](=O)[O-])nc2O1)c1ccccc1"
  melting point: "147 to 148 °C"
- compound: "Cn1c(=O)n(CC2(C)Cn3cc([N+](=O)[O-])nc3O2)c2ccc(Cl)cc21 (stereo not drawn)"
  melting point: "261.3 to 263.3 °C"
- compound: "CC1(COc2nc3ccccc3o2)Cn2cc([N+](=O)[O-])nc2O1 (stereo not drawn)"
  melting point: "200 to 203 °C"
- compound: "C[C@]1(COC(=O)N2CC=C(c3ccc(C(F)(F)F)cc3)CC2)Cn2cc([N+](=O)[O-])nc2O1"
  melting point: "169 to 171 °C"
- compound: "CC1(COC(=O)N2CCCCC2)Cn2cc([N+](=O)[O-])nc2O1 (stereo not drawn)"
  melting point: "152 to 154 °C"
- compound: "O=[N+]([O-])c1cn2c(n1)OC1(CCN(c3ccc(C(F)(F)F)cc3)CC1)C2"
  melting point: "249.2 to 250.1 °C"
- compound: "CN(c1ccc(OC(F)(F)F)cc1)C1CCN(C[C@@]2(C)Cn3cc([N+](=O)[O-])nc3O2)CC1"
  melting point: "133.2 to 134.4 °C"
- compound: "Cc1ccc(NC(=O)N2CCN(C[C@@]3(C)Cn4cc([N+](=O)[O-])nc4O3)CC2)cc1"
  melting point: "207 to 210 °C (dec.)"
- compound: "O=C(NCc1ccccc1)N1CCC2(CC1)Cn1cc([N+](=O)[O-])nc1O2"
  melting point: "244 to 247 °C (dec.)"
- compound: "CC1(Cn2nc(-c3ccc(-c4ccccc4)cc3)oc2=O)Cn2cc([N+](=O)[O-])nc2O1 (stereo not drawn)"
  melting point: "248 to 249 °C"
- compound: "CCn1nnnc1CCC1(C)Cn2cc([N+](=O)[O-])nc2O1 (stereo not drawn)"
  melting point: "135 to 137 °C"
- compound: "CC(C)(C)OC(=O)N1CC=C(c2ccc(OC[C@@]3(C)Cn4cc([N+](=O)[O-])nc4O3)cc2)CC1"
  melting point: "183 to 189 °C (dec.)"
